compounds and their reported melting point
// return numeric value only (unit: °C, not printed)

Consider the following illustrative entries.
{"Compound": "c1ccc2cc3cc4ccccc4cc3cc2c1 [2,3-benzanthracene]", "Measurement Name": "melting point", "U": "°C", "Readout Value": 341}
{"Compound": "[O-][n+]1ccc(OCc2ccccc2)cc1 [4-benzyloxypyridine n-oxide]", "Measurement Name": "melting point", "U": "°C", "Readout Value": 174}

We next turn to a different compound, shown below.
Value of melting point reported for the compound COc1ccc2c3c1O[C@H]1[C@@H](O)C=C[C@H]4[C@@H](C2)N(C)CC[C@@]341 is 158

* * *

compounds and their reported melting point
// return numeric value only (unit: °C, not printed)

{"Compound": "Cc1cccc(-c2nc(-c3ccccc3)cs2)c1", "melting point, °C": 48}
{"Compound": "CC(C(=O)O)c1ccc(-c2ccccc2)c(F)c1 (stereo not given)", "melting point, °C": 110}
{"Compound": "Oc1ccc(-c2ccc(O)cc2)cc1 [4,4'-dihydroxybiphenyl]", "melting point, °C": 282}
{"Compound": "Cc1cc(Br)c(C)cc1Br", "melting point, °C": 73}
{"Compound": "Cc1ccc2ncccc2c1[N+](=O)[O-]", "melting point, °C": 117}

Value of melting point reported for the compound Nc1ccccc1C(=O)OCC=Cc1ccccc1 is 65

Value of melting point reported for the compound Nc1ccccc1C1C=c2ccccc2=N1 (stereo not given) is 153
